Origin of measurements: patent US20220195063A1

- TESTED_SYSTEM: T1, cynomolgus SIRPα (cySIRPα), protein antigen (cynomolgus monkey, UniProt A0A2K5VYQ9 31-369)
- T1 construct: Coated on the plate in ELISA
- T1 sequence: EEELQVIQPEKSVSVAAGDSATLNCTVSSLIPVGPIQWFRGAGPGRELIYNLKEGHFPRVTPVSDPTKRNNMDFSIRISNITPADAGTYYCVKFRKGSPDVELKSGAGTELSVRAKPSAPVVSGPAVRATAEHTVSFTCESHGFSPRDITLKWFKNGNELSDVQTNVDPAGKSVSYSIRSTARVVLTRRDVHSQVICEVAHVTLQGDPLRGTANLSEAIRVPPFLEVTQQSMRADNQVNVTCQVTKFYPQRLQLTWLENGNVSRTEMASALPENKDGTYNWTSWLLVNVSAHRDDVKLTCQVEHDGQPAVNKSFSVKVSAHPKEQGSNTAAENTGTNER
- EXPERIMENT_DESCRIPTION: ELISA, antigen coated
ASSAY_METRIC: EC50 (µg/mL)
Please respond with the number in µg/mL and leave the unit unwritten.

Briefly, EC50 measured for 12C4huIgG1LALA (antibody, V domains shown, HAVT20 leader left out; also called 12C4LALA; huIgG112C4LALA) VH: EVKLEESGGGLMQPGGSMKLSCVASGFTFSNYWMNWVRQSPEKGLEWVAEIRLKSNNYATHYAESVKGRFTISRDDSKSSVYLQMNNLRAEDTGIYYCIRDYDYDAYFDYWGQGTTLTVSS VL: DIVLTQSPASLAVSLGQRATISCRASKSVSTSGYNYMYWYQQKPGQPPKLLIYLASNLESGVPARFSGSGSGTDFTLNIHPVEEEDAATYYCQHSGELPYTFGGGTKLEIKR : 0.005

In plain terms, anti-SIRPα antibody 8 (antibody, human IgG1, kappa, L234A L235A, V domains shown, Rabbit variable regions on human IgG1 LALA / kappa) VH: QSLEESGGRLVTPGTPLTLTCTASGVDLSNYAMGWVRQAPGKGLEWIGIIYAGGSTSYATWAKGRFTISKTSTTMDLKMTSPTTEDTATYFCARHRSDGYDYFHLWGPGTLVTVSL VL: AIDMTQTPASVSEPVGGTVTIKCQASQSISSWLAWYQQKPGQRPKLLIYDASKLASGVPSRFSGSGSGTEFTLTISGVQSDDAAAYYCQQGYAVSYVENIFGGGTEVVVKR has a documented EC50 of 0.026

Lab book: EC50 of anti-SIRPα antibody 1 (antibody, human IgG1, kappa, L234A L235A, V domains shown, Rabbit variable regions on human IgG1 LALA / kappa) VH: QSVEESGGRLVTPGTPLTLTCTVSGIDLSSYAMSWVRQAPGKGLEWIGIISSGGITYYASWAKGRFTISKTSTTVDLKIPSPTTEDTATYFCARSLWAASNYYMALWGPGTLVTVSS VL: AIKMTQTPASVSAAVGGTVSINCQASEDIESYLAWYQQKPGQPPKLLIYRASTLASGVSSRFKGSGSGTQFTLTISDLESADAATYYCLGDYYSSSGDTGAFGGGTEVVVKR noted as 0.305
